For each record, write down the corresponding Kd.
biological target: human Siglec-8 (full-length, on transfected CHO or 293 cells, or native on human eosinophils) (human, UniProt Q9NYZ4 17-499); assay: flow cytometry, CHO cells transiently transfected with full-length human Siglec-8 (apparent affinity)
Sequence (Q9NYZ4 17-499): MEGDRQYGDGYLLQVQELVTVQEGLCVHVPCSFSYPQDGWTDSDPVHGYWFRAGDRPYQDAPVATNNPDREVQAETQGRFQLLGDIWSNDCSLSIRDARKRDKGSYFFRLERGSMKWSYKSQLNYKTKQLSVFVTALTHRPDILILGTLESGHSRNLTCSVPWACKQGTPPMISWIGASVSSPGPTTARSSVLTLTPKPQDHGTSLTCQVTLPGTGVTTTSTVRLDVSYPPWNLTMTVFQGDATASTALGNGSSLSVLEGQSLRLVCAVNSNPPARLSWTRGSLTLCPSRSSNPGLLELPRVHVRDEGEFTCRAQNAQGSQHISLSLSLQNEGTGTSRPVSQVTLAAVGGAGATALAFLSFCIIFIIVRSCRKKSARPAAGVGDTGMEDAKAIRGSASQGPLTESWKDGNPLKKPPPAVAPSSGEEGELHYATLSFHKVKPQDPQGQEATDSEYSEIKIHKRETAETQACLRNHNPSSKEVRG
Numbers only, in nM.

Worked cases, Kd given:
{"columns": ["binder", "measurement.units", "Kd"],
 "data": [
  ["anti-Siglec8-G2-xELL, bivalent VHH-hIgG1-xELL-Fc (Fc fusion, Homodimer through the Fc; also called cx10382) QVTLKESGGGLVRTGGSLRLSCAASGSISIFSMYVVAWYRQAPGKQREWVAFIQRGGTANYADSAKGRFTISRDNAKNTVYLQMASLKPDDTAVYYCNYINSDNEIGGPWGQGTQVTVKPGGGGDKTHTCPPCPAPGGPSVFLFPPKPKDTLMISRTPEVTCVVVDVSHEDPEVKFNWYVDGVEVHNAKTKPREEQYNSTYRVVSVLTVLHQDWLNGKEYKCKVSNKALPAPIEKTISKAKGQPREPQVYTLPPSRDELTKNQVSLTCLVKGFYPSDIAVEWESNGQPENNYKTTPPVLDSDGSFFLYSKLTVDKSRWQQGNVFSCSVMHEALHNHYTQKSLSLSPGK", "nM", 0.268],
  ["anti-Siglec8-D1-xELL, bivalent VHH-hIgG1-xELL-Fc (Fc fusion, Homodimer through the Fc; also called cx8983; Bi-D1) QVQLVESGGGLVQPGGSLRLSCAASGSIASIHGMGWYRQAPGKERELVAAIAGEGSTYYADSVKGRFTISRDFAKNTLYLQMNNLKAEDTAMYYCANNDERDDYWGQGTQVTVKPGGGGDKTHTCPPCPAPGGPSVFLFPPKPKDTLMISRTPEVTCVVVDVSHEDPEVKFNWYVDGVEVHNAKTKPREEQYNSTYRVVSVLTVLHQDWLNGKEYKCKVSNKALPAPIEKTISKAKGQPREPQVYTLPPSRDELTKNQVSLTCLVKGFYPSDIAVEWESNGQPENNYKTTPPVLDSDGSFFLYSKLTVDKSRWQQGNVFSCSVMHEALHNHYTQKSLSLSPGK", "nM", 0.427],
  ["anti-Siglec8-E2-xELL, bivalent VHH-hIgG1-xELL-Fc (Fc fusion, Homodimer through the Fc; also called cx8984; Bi-E2) QVQLVESGGGLVQPGGSLRLSCATSGIIFTSNVINWYRQAPGKQREFVAFITSITSGQSTMYADAVKGRFTVSRDNDKNIGYLQMTSLQPEDTARYVCNVGAYWGQGTQVTVKPGGGGDKTHTCPPCPAPGGPSVFLFPPKPKDTLMISRTPEVTCVVVDVSHEDPEVKFNWYVDGVEVHNAKTKPREEQYNSTYRVVSVLTVLHQDWLNGKEYKCKVSNKALPAPIEKTISKAKGQPREPQVYTLPPSRDELTKNQVSLTCLVKGFYPSDIAVEWESNGQPENNYKTTPPVLDSDGSFFLYSKLTVDKSRWQQGNVFSCSVMHEALHNHYTQKSLSLSPGK", "nM", 0.331]
]}

Now let's try a different one.
QUERY: Item under review: anti-Siglec8-B12-xELL, bivalent VHH-hIgG1-xELL-Fc (Fc fusion, Homodimer through the Fc; also called cx8982; Bi-B12) QVQVVESGGGLVQPGGSLRLSCAASGSTSLLNAMAWYRQAPGKERELVAAISSGGGTYYADSVKGRFTISTNNAKNTLYLQMNSLKPEDTAMYYCAPGPNYSDYEEINWGQGTQVTVKPGGGGDKTHTCPPCPAPGGPSVFLFPPKPKDTLMISRTPEVTCVVVDVSHEDPEVKFNWYVDGVEVHNAKTKPREEQYNSTYRVVSVLTVLHQDWLNGKEYKCKVSNKALPAPIEKTISKAKGQPREPQVYTLPPSRDELTKNQVSLTCLVKGFYPSDIAVEWESNGQPENNYKTTPPVLDSDGSFFLYSKLTVDKSRWQQGNVFSCSVMHEALHNHYTQKSLSLSPGK . Reported Kd?
RESULT: 0.367
